System: IL-6 (THP-1 cells)
method-notes: IL-6 inhibition in LPS-stimulated THP-1 monocytes (HTRF)
Type: cell-based
measurement-conditions: Homo sapiens, 500 ng/mL LPS, IL-6 HTRF, Table 6
pEC50: −log10 of the molar value.
observation-type: pEC50

The examples below pair each entry with its known result.
INSERT INTO assay_data (compound_string, reported_measurement) VALUES
  ('CN(C)CCNc1cc(F)cc(-c2cccc3[nH]c(-c4n[nH]c5ccc(-c6cnccn6)nc45)nc23)c1', 6.16),
  ('COc1cccc(-c2cccc3[nH]c(-c4n[nH]c5ccc(-c6cncc(OC7CCNCC7)c6)nc45)nc23)c1', 5.35);

I = Cc1cn(-c2cccc3[nH]c(-c4n[nH]c5ccc(-c6cncc(N7CC(N)C7)n6)nc45)nc23)cn1
II = Cc1ncc(-c2ccc3[nH]nc(-c4nc5c(-c6cc(F)cc(NCCN(C)C)c6)cccc5[nH]4)c3n2)n1C
III = CN(C)c1cncc(-c2ccc3[nH]nc(-c4nc5c(-c6cccs6)cccc5[nH]4)c3n2)c1
IV = Fc1cccc(-c2cccc3[nH]c(-c4n[nH]c5ccc(-c6cncc(OC7CCNCC7)c6)nc45)nc23)c1
Sort these molecules on pEC50 so the largest reading comes first. Arrange the labels as the request states and list them. II, I, IV, III
(II: 6.79, I: 6.42, IV: 5.82, III: 5.43)
